B1: Dystrobrevin alpha, residues 235 to 294; numbered along this chain, Q9Y4J8 (parent)
chain: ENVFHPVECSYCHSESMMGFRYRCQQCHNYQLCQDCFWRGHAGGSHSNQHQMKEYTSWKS

Variants of: B1
testDetails: abundance fitness (aPCA) (normalised: wild type 0, dead -1); higher = more abundant; growth selection in yeast, the domain comes from the species named
runConditions: Homo sapiens
Reported abundance fitness is given for each of the following variants.
measuredMetric: abundance fitness

alteration | measuredMetric | testValue
R39W | abundance fitness | -0.282
V3N | abundance fitness | 0.149
S57T | abundance fitness | 0.008
E1G | abundance fitness | -0.336
W58T | abundance fitness | 0.258
C27F | abundance fitness | -0.434
W38R | abundance fitness | 0.364
C36A | abundance fitness | -0.881
G44P | abundance fitness | -0.523
E15C | abundance fitness | -0.171
R39C | abundance fitness | -0.071
G40I | abundance fitness | -0.27
M17T | abundance fitness | 0.081
R23F | abundance fitness | -0.034
Y30T | abundance fitness | -0.426
C12T | abundance fitness | -0.868
F4H | abundance fitness | -0.059
Q25E | abundance fitness | 0.078
Q26H | abundance fitness | -0.315
N29E | abundance fitness | -0.152
R21M | abundance fitness | 0.063
Q51I | abundance fitness | 0.009
